# Assayed System: CYP3A4 (Homo sapiens)
# Sequence (P08684 whole entry): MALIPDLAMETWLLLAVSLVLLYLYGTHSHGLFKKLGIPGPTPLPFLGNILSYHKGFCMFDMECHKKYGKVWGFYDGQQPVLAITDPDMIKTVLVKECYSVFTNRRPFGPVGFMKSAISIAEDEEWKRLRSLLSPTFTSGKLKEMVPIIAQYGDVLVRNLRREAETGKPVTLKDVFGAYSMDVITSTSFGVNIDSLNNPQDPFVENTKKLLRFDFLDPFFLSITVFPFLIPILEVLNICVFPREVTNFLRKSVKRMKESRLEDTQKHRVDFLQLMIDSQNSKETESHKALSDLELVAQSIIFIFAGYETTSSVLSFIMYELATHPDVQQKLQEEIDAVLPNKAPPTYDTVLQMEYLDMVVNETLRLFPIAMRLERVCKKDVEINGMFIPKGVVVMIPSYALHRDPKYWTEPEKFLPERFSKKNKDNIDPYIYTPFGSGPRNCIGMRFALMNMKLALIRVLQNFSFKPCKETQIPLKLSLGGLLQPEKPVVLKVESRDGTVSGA
# Assay Procedure: Half life in human liver microsomes assessed as CYP3A4-mediated parent compound depletion at 1 uM
# Format: ADME, Microsome

Compound: O=C(NC1CCN(CCc2c[nH]c3ccccc23)CC1)c1ccccc1
Qualifier Operator: =
half-life at 1 µM, min: 16
//
Compound: O=c1[nH]c2ccccc2n1C1CCN(CCCC(c2ccc(F)cc2)c2ccc(F)cc2)CC1 [PIMOZIDE]
Qualifier Operator: =
half-life at 1 µM, min: 2.7
//
Compound: COc1ccc(CCN2CCC(Nc3nc4ccccc4n3Cc3ccc(F)cc3)CC2)cc1
Qualifier Operator: =
half-life at 1 µM, min: 1.5
//
Compound: CN(c1nc2ccccc2s1)C1CCN(CC(O)COc2ccc(F)cc2)CC1 (stereo unspecified)
Qualifier Operator: <
half-life at 1 µM, min: 5
//
Compound: COc1cc(N)c(Cl)cc1C(=O)NC1CCN(Cc2ccccc2)CC1 [CLEBOPRIDE]
Qualifier Operator: <
half-life at 1 µM, min: 5
//
Compound: O=C(CCCN1CCC(n2c(O)nc3ccccc32)CC1)c1ccc(F)cc1
Qualifier Operator: =
half-life at 1 µM, min: 3.3
